Catalogue of compounds with associated Ratio
Test: Ratio of AUC in mouse to MIC90 of replicating Mycobacterium tuberculosis H37Rv after 4 days by Alamar blue assay
measured attribute: Ratio

1. COc1cccc(C(c2cc3cc(C#N)ccc3nc2OC)C(O)(CCN(C)C)c2cc(C)nc(C)c2)c1OC (racemic)
6.17
2. COc1cccc(C(c2cc3cc(Br)ccc3nc2OC)C(O)(CCN(C)C)c2cc(C)cnc2C)c1OC (racemic)
19.9
3. COc1nc2ccc(Br)cc2cc1C(c1cccc(C)c1)C(O)(CCN(C)C)c1cccnc1OC (racemic)
19.3
4. COc1nc2ccc(Br)cc2cc1C(c1cccc2c1OCO2)C(O)(CCN(C)C)c1cccnc1OC (racemic)
5.73
5. CCOc1cc(C(O)(CCN(C)C)C(c2cc(OC)nc(OC)c2)c2cc3cc(Br)ccc3nc2OC)cc(OC(C)C)n1 (racemic)
1650
6. COc1cccc(C(c2cc3cc(Br)ccc3nc2OC)C(O)(CCN(C)C)c2cnc(C)cc2C)c1OC (racemic)
104
7. COc1cc(C(O)(CCN(C)C)C(c2cc3cc(Br)ccc3nc2OC)c2ccnc(OC)c2OC)cnc1OC (racemic)
71.3
8. COc1cccc(C(O)(CCN(C)C)C(c2cc3cc(Br)ccc3nc2OC)c2cccc3c2OCO3)n1 (racemic)
10.4
9. COc1nc2ccc(C#N)cc2cc1C(c1cccc(C)c1)C(O)(CCN(C)C)c1cccnc1OC (racemic)
2.25

Values compiled from ChEMBL document CHEMBL4480421.
